Experiment: GFP drop in mixed WT/humanized-ribosome E. coli culture – GFP/RFP fluorescence, OD600, single point, bacterial rRNA inhibitor project, primary screen (AID 720706)
Details: E. coli WT GFP vs humanized-ribosome RFP mutants, 24 h; measured here: RFP humanized mutant strains, DMSO median 0, no signal -100, concentration not given here
About 5,500 (1.6%) of roughly 350,000 compounds were called active. The sample holds actives, similar compounds and a random draw of the others, so the mix is not that of the screen.
readout_name: RFP signal change (%)
Report as a plain number; the unit % is understood.

Query :: State the recorded RFP signal change for this entry: CC(C)NC(=O)N(C)C[C@H]1OCc2ccccc2-c2c(n(C)c3ccccc23)C(=O)N([C@H](C)CO)C[C@@H]1C
Result :: -4.42

More entries:
Query :: Can you share its RFP signal change? I mean this compound: CSCC[C@H](NC(=O)N1CCn2c1nc1ccccc12)C(=O)NC1CCCCC1
Result :: -0.555

Query :: Thanks! And Cc1nn(-c2ccccc2)c(Cl)c1/C=C/C(=O)c1ccc(O)cc1 ?
Result :: -0.656

Query :: And the next one, Cc1nn(-c2ccccc2)c(C)c1/C=C/C(=O)OC(C)C(N)=O (centres undefined) ?
Result :: -0.31

Query :: Now the compound CC(C)(C)c1ccc(Oc2ccc(N)cc2)cc1
Result :: -4.06

Query :: Entry CSCC[C@H](NC(=O)N1CCn2c1nc1ccccc12)C(=O)NCc1ccc2c(c1)OCO2 please
Result :: 3.82

----------
Experiment: GFP drop in mixed WT/humanized-ribosome E. coli culture – GFP/RFP fluorescence, OD600, single point, bacterial rRNA inhibitor project, primary screen (AID 720706)
Details: E. coli WT GFP vs humanized-ribosome RFP mutants, 24 h; stronger effect = lower value, DMSO median 0, no signal -100
Among all 350,000 compounds or so, about 5,500 (1.6%) were called active. This excerpt belongs to a sample that is enriched for actives.
# GFP signal change (wild-type ribosome) annotations
Lab book: enter the figure in %, no units written.

Query :: Which GFP signal change (wild-type ribosome) reading was recorded for the molecule CN(C)c1nc(=Nc2cccc(Cl)c2)ss1 ?
Result :: -20.6

Query :: What about this molecule? CC(=O)Nc1ccc(CNc2nc(NCCN(C)C)nc3cc(-c4ccccc4)sc23)cc1
Result :: -20.5

Query :: Now try COCCNc1nc(NCc2ccc(NC(C)=O)cc2)c2sccc2n1 .
Result :: 31.4

Query :: And CC=Cc1ccc2n(c1=O)C[C@@H]1[C@@H](CO)[C@H](C(=O)N(C)C)N(CC3CCOCC3)[C@H]21 (mixture of isomers) ?
Result :: 2.33

Query :: Same read-out for Cc1ccc(S(=O)(=O)N2CC(=O)Nc3ccccc32)cc1C ?
Result :: -32.4

Query :: Ok, now Cc1ccc(S(=O)(=O)N(C)CC(=O)OCC(=O)N2CC(=O)Nc3ccccc32)cc1
Result :: 2.71

Query :: Another molecule: C[C@@H]1CCCCO[C@H](CN(C)C(=O)Nc2ccccc2)[C@H](C)CN([C@@H](C)CO)C(=O)c2cc(N(C)C)ccc2O1
Result :: -1.6

Query :: Item: COCCNc1nc(Nc2ccccc2Cl)c2sc(-c3ccccc3)cc2n1
Result :: -0.73

Query :: Same for CO[C@H]1CN(C)C(=O)c2cc(NC(=O)C3CCCC3)ccc2OC[C@@H](C)N(C(=O)CC2CC2)C[C@@H]1C
Result :: -2.32

----------
Assay: GFP drop in mixed WT/humanized-ribosome E. coli culture – GFP/RFP fluorescence, OD600, single point, bacterial rRNA inhibitor project, primary screen (AID 720706)
Details: E. coli WT GFP vs humanized-ribosome RFP mutants, 24 h; measured here: OD600 growth, DMSO median 0, no signal -100
The whole screen tested about 350,000 compounds, of which about 5,500 (1.6%) were called active. This excerpt belongs to a sample that is enriched for actives.
// reported OD600 change per item
# output: bare number, implied unit %

Worked examples, 6 molecules total:
Query :: For the molecule CCCNC(=O)N(C)C[C@H]1Oc2ncc(-c3cccc(C#N)c3)cc2C(=O)N([C@@H](C)CO)C[C@@H]1C , what OD600 change is on record?
Result :: 2.48

Query :: Continue with CCCOc1ccc(NC(=O)CC2C(=O)N(C)C(=S)N2Cc2ccc3c(c2)OCO3)cc1 (stereo not drawn)
Result :: -17.1

Query :: Please give the result for Cc1nn(-c2ccc(F)cc2)c(Cl)c1/C=C(/CCC(=O)O)c1nc2ccccc2s1 too.
Result :: -75.8

Query :: What about CO[C@@H]1CN(C)C(=O)c2ccc(NS(C)(=O)=O)cc2OC[C@@H](C)N(C(=O)C2CCOCC2)C[C@@H]1C ?
Result :: -0.862

Query :: Request: CN1c2ccc(-c3ccc(C#N)cc3)cc2[C@@H]2[C@@H](CCN2C(=O)C2CCCCC2)[C@H]1CO
Result :: -10.9

Query :: O=C(Nc1ccc(Cl)cc1)C1c2cccc[n+]2CC(=O)N1Cc1ccc2c(c1)OCO2 (stereo not drawn) ?
Result :: 0.665

Next:
Query :: # query: OD600 change of entry C/C=C/c1ccc([C@@H]2[C@@H](CO)N3C(=O)CN(C(=O)Nc4cccc(OC)c4)C[C@@H]23)cc1
Result :: -7.8

Query :: Try the molecule Cc1nn(-c2ccccc2)c(Cl)c1/C=C/C(=O)c1ccc(O)cc1
Result :: -19.6

Query :: Likewise for COc1ccc(CN(C)C[C@@H]2Oc3ccc(NS(=O)(=O)c4cn(C)cn4)cc3C(=O)N([C@@H](C)CO)C[C@@H]2C)cc1 ?
Result :: 9.11

Query :: For CCCNC(=O)N1CC(=O)N2[C@@H](CO)[C@H](c3ccc(-c4ccc(C)cc4)cc3)[C@@H]2C1 then?
Result :: 1.16

Query :: Then COc1ccc(C#Cc2ccc([C@H]3[C@H]4CN(C(=O)c5cccnc5)CC(=O)N4[C@H]3CO)cc2)cc1 ?
Result :: -5.28

Query :: Also CCOc1ccc2nc(C(=O)N3CCCC(C)C3)sc2c1 (stereo not drawn) ?
Result :: -10.3

Query :: Same read-out for Cc1ccc(S(=O)(=O)N(C)C[C@H]2Oc3c(NS(=O)(=O)c4cn(C)cn4)cccc3C(=O)N([C@@H](C)CO)C[C@H]2C)cc1 ?
Result :: 5.92

Query :: Entry to check: CCN(CC)CCN(C(=O)c1ccc2c(c1)CCCC2)c1nc2c(OC)cccc2s1
Result :: -75.4

Query :: Consider next the molecule CN1C(=O)c2cc(NC(=O)c3ccc(Cl)cc3)ccc2OC[C@H]2O[C@H](CC(=O)O)CC[C@H]21 in the same way.
Result :: 1.68

Query :: Okay, and Cc1nn(-c2ccccc2)c(C)c1/C=C/C(=O)OC(C)C(N)=O (stereo not drawn) ?
Result :: -2.9

Query :: And the next one, C[C@@H]1CN([C@@H](C)CO)S(=O)(=O)c2ccc(Br)cc2O[C@@H]1CN(C)C(=O)C1CCCCC1 ?
Result :: -9.29

Query :: Also COc1ccccc1-c1ccc([C@@H]2C[C@H]3[C@H](CON3C)CN2S(=O)(=O)c2cc(Cl)cc(Cl)c2)cc1 ?
Result :: 14.8

----------
Test: GFP drop in mixed WT/humanized-ribosome E. coli culture – GFP/RFP fluorescence, OD600, single point, bacterial rRNA inhibitor project, primary screen (AID 720706)
Settings: E. coli WT GFP vs humanized-ribosome RFP mutants, 24 h, DMSO median 0, no signal -100
Among all 350,000 compounds or so, about 5,500 (1.6%) were called active.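 How the source made its calls: active means significant combined selectivity score with lowered wild-type GFP, culture density cut under 30%, mutant RFP and density less affected; inactive means any of these conditions unmet.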 This is one part of a sample in which actives are shown more often than they occur.
Allowed answers: active, inactive

Query :: Hello, I am checking results. What call was entered for Cc1ccc(CNC(=O)c2cc(-c3ccccc3C)n(CC3CC(c4cccc([N+](=O)[O-])c4)=NO3)n2)cc1 (stereo not given) ?
Result :: inactive

Query :: Follow-up entry: Cc1noc(C)c1NC(=O)Nc1ccc2c(c1)C(=O)N([C@@H](C)CO)C[C@H](C)[C@@H](CN(C)C(=O)C1CCCCC1)OCCCC[C@@H](C)O2
Result :: inactive

Query :: Follow-up item: C[C@@H](O)C#Cc1ccc([C@H]2[C@H]3CN(C(=O)c4ccc5c(c4)OCO5)CCCCN3[C@H]2CO)cc1
Result :: inactive

Query :: Now try S=C(NCc1ccco1)Nc1ccc2c(c1)OCCO2 .
Result :: inactive

Query :: Follow-up item: CCn1c(SCC(=O)Nc2cc(C)c(Cl)cc2OC)nnc1-c1ccco1
Result :: inactive

Query :: What about C[C@@H]1CN([C@H](C)CO)C(=O)c2cc(NC(=O)Cn3cnnn3)ccc2O[C@@H]1CN(C)Cc1ccc(C(F)(F)F)cc1 ?
Result :: inactive

Query :: Next: COc1cc(NC(=S)NCc2ccco2)c(OC)cc1Cl
Result :: inactive

Query :: Request: CN1CCN(C(=O)C[C@H]2CC[C@@H]3[C@H](COC[C@@H](O)CN3CC3CCCC3)O2)CC1
Result :: inactive

Query :: Follow-up entry: C[C@H](CO)N1C[C@H](C)[C@H](CN(C)C)Oc2ccc(NC(=O)c3ccncc3)cc2CC1=O
Result :: inactive

Query :: Quick one: C[C@@H]1CC=CC[C@@H](c2ccccc2)NC(=O)[C@@H](Cc2ccccc2)N(C)C(=O)c2ccccc2O1 (mixture of isomers)
Result :: inactive

Further cases:
Query :: Entry S=C(NCC1CCCO1)N1CCN(c2ccc(Cl)c(Cl)c2)CC1 (stereo not given) : call = ?
Result :: inactive

Query :: # repeat for O=c1[nH]n2c(-c3ccccc3)nc(O)c2c2ccccc12
Result :: active

Query :: Then CN1c2ccc([N+](=O)[O-])cc2C(C)(C)C12C=Cc1cc(C(=O)O)ccc1O2 (stereo not given) ?
Result :: active

Query :: Same question for Cc1ccc(-c2ccc([C@H]3[C@H](CO)N4C(=O)CN(S(=O)(=O)c5cccc(F)c5)C[C@@H]34)cc2)cc1 please.
Result :: inactive

Query :: Consider next the compound O=[N+]([O-])c1ccc(N2CCN(c3ccc(O)cc3)CC2)c(Cl)c1 in the same way.
Result :: inactive

Query :: Would you kindly repeat that for CCC(=O)N1[C@@H](CO)[C@H](c2ccc(-c3cccc(F)c3)cc2)[C@@H]1CNC(C)=O ?
Result :: inactive

Query :: Continue with CCC(=O)N1CC(=O)N2[C@H](CO)[C@@H](c3ccc(-c4ccc(C(=O)N(C)C)cc4)cc3)[C@@H]2C1
Result :: inactive

Query :: Then COc1ccc(NC(=O)N[C@@H]2CC[C@H](CCn3cc(-c4ccc(OC)cc4)nn3)O[C@@H]2CO)cc1 ?
Result :: inactive

Query :: Further, for Oc1c(Br)cc(/C=N/NC(=S)NCC2CCCO2)cc1Br (stereo not given) ?
Result :: active

Query :: Cool, now COC(=O)C[C@@H]1CC[C@@H]2[C@H](COc3ccc(NS(=O)(=O)c4ccccc4F)cc3C(=O)N2C)O1
Result :: inactive
